Recorded CD40 (FoB) for the following binders
- target system: T1, full-length untagged human GPNMB expressed on cells (human, UniProt Q14956 23-572)
- T1 sequence: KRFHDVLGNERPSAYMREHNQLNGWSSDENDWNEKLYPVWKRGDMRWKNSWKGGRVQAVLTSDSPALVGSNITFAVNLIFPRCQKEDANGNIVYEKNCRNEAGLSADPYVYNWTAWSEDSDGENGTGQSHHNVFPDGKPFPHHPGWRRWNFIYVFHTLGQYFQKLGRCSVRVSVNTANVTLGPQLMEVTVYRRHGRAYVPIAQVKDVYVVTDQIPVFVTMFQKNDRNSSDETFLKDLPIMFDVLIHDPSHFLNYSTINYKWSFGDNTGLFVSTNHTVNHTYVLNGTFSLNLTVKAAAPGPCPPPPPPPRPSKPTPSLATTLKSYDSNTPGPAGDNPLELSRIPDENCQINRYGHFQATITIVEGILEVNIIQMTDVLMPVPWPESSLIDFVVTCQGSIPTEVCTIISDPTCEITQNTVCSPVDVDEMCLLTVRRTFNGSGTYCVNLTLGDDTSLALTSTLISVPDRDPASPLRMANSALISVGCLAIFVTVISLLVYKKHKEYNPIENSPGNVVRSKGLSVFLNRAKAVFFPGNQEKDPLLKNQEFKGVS
- assay overview: cell-based or functional assay
Write your answer as a measured quantity: the number, then the unit.

| binder | result |
| --- | --- |
| anti-GPNMB antibody GPN-38 (antibody, human IgG1, V domains shown, chimeric) VH: QVQLQQPGAELVRPGTSVRLSCKASGYTFTSYWIHWVKQRPGRGLEWIGVIDPSDSYTNYNQQFNVKATLTVDTSSSAAYMQLSSLTSEDSAVYYCARGLITAVNWYFDVWGTGTTVTVSS VL: DIQMTQSPASLSTSVGEIVTITCRASENIYSYLTWYQQKQGKSPQLLVYNAKTLAEGVPSRFSGSGSGTQFSLKINSLQPEDFGTYYCQHHYGTPLTFGSGTKLEIK | 1.01 FoB |
| anti-GPNMB antibody GPN-26 (antibody, human IgG1, V domains shown, chimeric) VH: EVQLQQSGPELVKPGASVKISCKASGYSFTGYYMNWVRQSPEKSLEWIGEINPSTGITTYNQKFKAKATLTVDKSSNTAFMQLKSLTSEDSAVYYCARPASWFDYWGQGTLVTVSA VL: DIQMTQSPSSLSASLGERVSLTCRASQEISGHLSWLQQKPDGTIKRLIYAASTLDSGVPKRFSGSRSGSDYSLTISSLESEDFADYYCLQYASYPYTFGGGTKLEIK | 1.91 FoB |
| anti-GPNMB antibody GPN-25 (antibody, human IgG1, V domains shown, chimeric) VH: EVQLQQSGPELVKPGASVKISCKASGYSFTGYYMNWVKQSPEKSLEWIGEINPGSGITTYNQKFKAKATLTVDKSSSTAYLQLKSLTSEDSAVYYCARPASWFAYWGQGTLVTVSA VL: DIQMTQSPSSLSASLGERVSFICRASQEISGHLSWLQQKPDGTIKRLIYAASTLDSGVPKRFSGSRSGSDYSLTISSLESEDFADYYCLQYASYPYTFGGGTKLEIK | 1.68 FoB |
| anti-GPNMB antibody GPN-06 (antibody, human IgG1, V domains shown, chimeric) VH: QVQLQQSGAELVKPGASVKLSCKASGYTFTNYYMYWVKQRPGQGLEWIGEINTRNGGTNFNEKFKSKATLTVDKSSSTAYMQLSSLTSEDSAVYYCTTGFAYWGQGTLVTVSA VL: DIQMTQSPASLSASVGETVTITCRASENIYSYLVWYQQNQGKSPQLLVYNAKTLAEGVPSRFSGSGSGTQFSLKINSLQPEDFGTYYCQHHYGTPFTFGSGTKLEIK | 1.44 FoB |
| anti-GPNMB antibody GPN-48 (antibody, human IgG1, V domains shown, chimeric) VH: QVQLQQSGPELVKPGASVKLSCRASGYGFSSFWMNWVKQRPGKGLEWIGRIYPGKGDTLYNGKFKDKATLTADESSSTAYMQLSSLTSEDSAVYFCARSIYYYDYWYFDVWDTGTTVTVSS VL: DIVMTQSHKFMSTSVGDRVNITCKASQDVNSAIAWYQQKPGQSPKLLIYSASYRFIGVPDRFTGSGSGTGFTFTISSVQAEDLAVYYCQQHYTTPLTFGAGTKLELK | 1.06 FoB |
| anti-GPNMB antibody GPN-43 (antibody, human IgG1, V domains shown, chimeric) VH: EVQLQQSGPELVKPGASVKISCKASGYTFTDYYMNWVRQSHGKSLEWIGDINPYHGGSTYNQKIKVKATLTVDKSSSTAYMELRSLTSEDSAVYYCARNWPYFDYWGQGTTLTVSS VL: DIQMTQSPASLSASVGETVTITCRASENIYSFLVWYQQKQGKSPQLLVYNAKTLAEGVPSRFSGSGSGTQFSLKISSLQPEDFGSYYCQHHFGTPPYTFGGGTKLEIK | 1.06 FoB |
| anti-GPNMB antibody GPN-31 (antibody, human IgG1, V domains shown, chimeric) VH: EVQLQQSGPELVKPGASVKISCKASGYSFTGYYMNWVKQSPEKNLEWIGEINPNTGGTTYNQKFKAKATLTVDKSSTTAYMQLKSLTSEDSAVYYCTRPASWFDYWGQGTLVTVSA VL: DIQMTQSPSSLSASLGERVSLTCRASQEISGHLSWLQQKPDGTIKRLIYAASTLDSGVPKRFSGRRSGSDYSLTISSLESEDFADYYCLQYASYPYTFGGGTKLAIK | 1.9 FoB |

Next:
Input anti-GPNMB antibody GPN-03 (antibody, human IgG1, V domains shown, chimeric) VH: QVQLQQSGPELVKPGASVKLSCKASGYTFTNYYMYWVKQRPGQGLEWIGEINPRNGGTNFNEKFKSKATLTVDKSSSTAYMQLSSLTFEDSAVYYCTTGLAYWGQGTLVTVSA VL: DVVMTQTPLSLPVSLGDQASISCRSSQSLVHSDGNTYLHWYLQKPGQSPKLLIYKVSTRFSGVPDRFSGSGSGTDFTLKISRVEAEDLGVYFCSQSTHVPWTFGGGTKLEIK . Output CD40 (FoB): 1.45 FoB
